All figures here come from patent US20190231791A1.

# assay_system: BACE1 (Homo sapiens, UniProt P56817)
# Construct: endogenous in cells; host or cells: SH-SY5Y (ATCC CRL2266) stably expressing human APP695Wt
# Sequence (P56817 46-501): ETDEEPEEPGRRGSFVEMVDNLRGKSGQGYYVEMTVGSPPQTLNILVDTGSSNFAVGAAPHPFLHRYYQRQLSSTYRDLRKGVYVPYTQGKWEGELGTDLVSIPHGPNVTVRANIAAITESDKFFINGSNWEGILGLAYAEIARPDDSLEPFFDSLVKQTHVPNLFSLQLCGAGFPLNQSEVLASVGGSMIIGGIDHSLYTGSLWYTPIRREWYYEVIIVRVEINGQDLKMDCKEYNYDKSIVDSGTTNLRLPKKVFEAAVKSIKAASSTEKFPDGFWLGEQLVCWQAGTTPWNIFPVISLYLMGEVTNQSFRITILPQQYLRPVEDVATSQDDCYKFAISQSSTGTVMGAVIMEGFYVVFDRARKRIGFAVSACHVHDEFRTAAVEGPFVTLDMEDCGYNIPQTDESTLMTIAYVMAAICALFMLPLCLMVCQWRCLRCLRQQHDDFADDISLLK
# test_protocol: SH-SY5YAPP695Wt whole cell assay (Abeta ELISA)
# Format: cell-based
# study_conditions: 24 hours incubation; ± 0.050, n=4; read-out: IC50 for SH-SY5YAPP695Wt A-beta (1-42) ELISA
# Protocol: To assess selectivity of BACE1 over BACE2, the test compound is evaluated in FRET and immunoassay detection base enzymatic assays using specific substrates for BACE1 and BACE2 as described below. For in vitro enzymatic and cellular assays, the test compound is prepared in DMSO to make up a 10 mM stock solution. […] At the end of the incubation, conditioned media are analyzed for evidence of beta-secretase activity by analysis of Abeta peptides 1-40 and 1-42 by specific sandwich ELISAs. […]
pIC50: −log10 of the molar value.
parameter: pIC50

>>> df
                                   compound  parameter  measured_number
0  CC(F)(F)[C@H]1OC[C@]2(c3cc(NC(=O)c4ccc(C#N)cn4)ccc3F)N=C(N)SC[C@H]12 [Example 1]      pIC50             9.75
